# Target: ScRvs167
# Test: SPOT peptide array binding signal intensity (averaged, normalized) (arbitrary units (background-subtracted, floor 0; scale differs between SH3 domains)); higher = stronger binding of the SH3 domain to the peptide
Give 1 (yes) when the value for SPOT peptide array binding signal intensity is at least 500. Give 0 (no) when it is less.

Consider the worked cases shown below.
>  <Binder>
QTREPNEPPPPSPAM

>  <Class assignment>
0 (no)

$$$$
>  <Binder>
PLQSKIPMLPSRRTM

>  <Class assignment>
1 (yes)

$$$$
>  <Binder>
PPIPNAPLSPAPAVP

>  <Class assignment>
0 (no)

$$$$
>  <Binder>
WRPRIVPILPYITRL

>  <Class assignment>
0 (no)

$$$$
>  <Binder>
FFRRSELYLPNSSKA

>  <Class assignment>
0 (no)

$$$$
>  <Binder>
AERNYAPRLPRRETS

>  <Class assignment>
1 (yes)

$$$$
>  <Binder>
APPLPPTAPPPPSLP

>  <Class assignment>
0 (no)

$$$$
>  <Binder>
KFIPSRPAPKPPSSA

>  <Class assignment>
0 (no)

$$$$

Reported SPOT peptide array binding signal intensity at or above 500? DKSRPPRPPPKPLHL
0 (no)

Reported SPOT peptide array binding signal intensity at or above 500? TKIRRRPQQPLTDFT
0 (no)

Reported SPOT peptide array binding signal intensity at or above 500? WTQRRGPLVVYAEDN
0 (no)

Reported SPOT peptide array binding signal intensity at or above 500? RRGPAPPPPPRASRP
1 (yes)

Reported SPOT peptide array binding signal intensity at or above 500? PKRRAPPPVPKKPSS
1 (yes)

Reported SPOT peptide array binding signal intensity at or above 500? RKRAPTPPAPSRSEK
1 (yes)

Reported SPOT peptide array binding signal intensity at or above 500? KNPRRQLQIPRQQPS
0 (no)
